B1: CPEB3 Ribozyme (parent)
chain: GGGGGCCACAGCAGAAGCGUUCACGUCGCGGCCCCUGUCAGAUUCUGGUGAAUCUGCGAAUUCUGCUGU

Variants of: B1
assay_name: self-cleavage, relative activity (ratio to wild type); higher = more cleavage; co-transcriptional
Everything with self-cleavage lower than 0.4 is class 0; everything else, including exactly 0.4, is class 1.

variant_name="A15C C54U" group="class 1"

Here is another variant to look at.
Asked: Does self-cleavage meet or surpass 0.4 for U53G A59C ?
Given back: class 1
